test system: SC27B; assay: qHTS profiling for inhibitors of Plasmodium falciparum proliferation (AID 504749); note: nearly all actives have a fitted effect of over 60% in size; note: potency is the fitted concentration of half-maximal effect; conditions: P. falciparum in erythrocytes, SYBR Green DNA, 72 h; series mostly up to 12.8 µM
Inconclusive results are not listed. The source made the active and inactive calls. Calls come from the whole dose curve; as a rule, active = well fitted inhibition curve with a large enough effect; inconclusive = small, poorly fitted or top-dose-only effect; inactive = flat fitted curve, though single readings scatter.
MEASUREMENT_TYPE: Potency

Some solved cases for reference:
1. CN1CCN([C@@H](c2ccccc2)c2ccc(Cl)cc2)CC1; inactive
2. CN(C)CCc1c[nH]c2ccc(CC3COC(=O)N3)cc12 (configuration not stated); inactive
3. COc1ccc(-c2cc(=O)c3c(O)cc(O[C@H]4OC(COC5OC(C)C(O)C(O)[C@H]5O)C(O)C(O)C4O)cc3o2)cc1O (some centres not stated); inactive
4. CO[C@H]1[C@H](O[C@H]2O[C@@H](C)[C@@H](O[C@@H]3C[C@](C)(O)[C@H](O)[C@H](C)O3)[C@@H](N(C)C)[C@@H]2O)[C@@H](CC=O)C[C@@H](C)[C@@H](O[C@H]2CC[C@H](N(C)C)[C@H](C)O2)/C=C\C=C/C[C@@H](C)OC(=O)C[C@H]1O; inactive

Record COc1ccc(CC(N)C(=O)NC2C(CO)OC(n3cnc4c(N(C)C)ncnc43)C2O)cc1 (configuration not stated) : what is its Potency with SC27B? 1000 nM (active)

Record CO[C@]12C(COC(N)=O)C3=C(C(=O)C(C)=C(N)C3=O)N1CC1NC12 (some centres not stated) : what is its Potency with SC27B? 1000 nM (active)

Record CNC1C(OC2C(O[C@@H]3C(O)C(O)[C@@H](N=C(N)N)C(O)C3N=C(N)N)OC(C)[C@@]2(O)CO)OC(CO)C(O)C1O (some centres not stated) : what is its Potency with SC27B? inactive

###

experiment: qHTS Assay for Lipid Storage Modulators (AID 1519); settings: Drosophila S3 cells, BODIPY lipid droplet/cell ratio, laser cytometry; at 25.7 µM (top of the series); cells loaded with oleic acid; note: % is set by controls: 0 for no effect and ±100 for the full control effect
Inconclusive results are not listed.
Please provide measured activity change, negative = inhibition for the entries that follow.
Value expressed in %; do not type the unit.

Param item = Cc1c(O)c(=O)n(-c2ccccc2)n1C ; retrieve measured activity change, negative = inhibition. -0.744

Param item = CC(C)(C)NC[C@@H](O)COc1ccccc1C1CCCC1 ; retrieve measured activity change, negative = inhibition. 1.2

Param item = C[C@]12C=CC(=O)C=C1CC[C@@H]1[C@H]3C[C@@H](O)[C@](O)(C(=O)CO)[C@@]3(C)C[C@H](O)[C@]12F ; retrieve measured activity change, negative = inhibition. -1.03

Param item = CCOC(=O)O[C@@H](C)OC(=O)[C@@H]1N2C(=O)[C@@H](NC(=O)[C@@H](N)c3ccccc3)[C@H]2SC1(C)C ; retrieve measured activity change, negative = inhibition. -1.29

Param item = CCC[C@H]1C[C@H](C(=O)N[C@H]([C@@H]2O[C@H](SC)[C@@H](O)[C@H](O)[C@@H]2O)[C@H](C)O)N(C)C1 ; retrieve measured activity change, negative = inhibition. 0.0766

Param item = C[C@]12CC[C@@H]3C(=CCc4cc(O)ccc43)[C@@H]1CCC2=O ; retrieve measured activity change, negative = inhibition. -4.32

Param item = CCN(CCCCOC(=O)c1ccc(OC)c(OC)c1)[C@@H](C)Cc1ccc(OC)cc1 ; retrieve measured activity change, negative = inhibition. -1.1

Param item = COc1ccc(OC)c([C@H](O)CNC(=O)CN)c1 ; retrieve measured activity change, negative = inhibition. 0.926

Param item = C[C@H](CCC(=O)O)[C@H]1CC[C@@H]2[C@H]3[C@@H](CC[C@@]21C)[C@]1(C)CC[C@H](O)C[C@@H]1C[C@@H]3O ; retrieve measured activity change, negative = inhibition. 0.999
